Entries and their self-splicing fitness (ln)
# method: self-splicing fitness, log relative to wild type (ln ratio); higher = more splicing; Tetrahymena group I intron in knt gene, E. coli kanamycin selection, DiMSum; sequences stand for … in CUCUCU…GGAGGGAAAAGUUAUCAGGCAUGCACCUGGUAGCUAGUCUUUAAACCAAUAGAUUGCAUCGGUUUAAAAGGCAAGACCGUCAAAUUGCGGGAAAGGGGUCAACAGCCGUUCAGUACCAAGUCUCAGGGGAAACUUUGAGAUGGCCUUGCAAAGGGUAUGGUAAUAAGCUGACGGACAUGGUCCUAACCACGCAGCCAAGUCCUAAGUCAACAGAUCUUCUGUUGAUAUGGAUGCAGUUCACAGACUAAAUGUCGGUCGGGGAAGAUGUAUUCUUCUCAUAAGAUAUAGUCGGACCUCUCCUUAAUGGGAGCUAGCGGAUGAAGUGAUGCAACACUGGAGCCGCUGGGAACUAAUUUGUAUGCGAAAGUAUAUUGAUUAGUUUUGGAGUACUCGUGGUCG;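 note: selection with 25 µg/mL kanamycin versus none on LB agar overnight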
# condition-summary: 37 °C
Give a plain numeric answer without units written out.

Here's what some known entries look like.
Could you tell me which self-splicing fitness (ln) is on file for GUACAGCAAUAUUACGCCUA ? -0.254

And then AAUUAGCAAUAUUACGAAUG , what is it? 0.187

And then GCUCAGCAAUAUUACGAGCC , what is it? -3.64

And then UACCAGCAAUAUUACGCGGA , what is it? -1.04

And then GCGAAGCAAUAUUACGGAAU , what is it? -1.73

And then CAAAAGCAAUAUUACGCUUA , what is it? -2.17

And then CUUGAGCAAUAUUACGGGCG , what is it? -1.51

And then ACUCAGCAAUAUUACGCUGA , what is it? -3.15

Continuing:
Could you tell me which self-splicing fitness (ln) is on file for CAACAGCAAUAUUACGGACG ? 0.505

And then CUUUAGCAAUAUUACGGACA , what is it? -1.44

And then UCAAAGCAAUAUUACGCGAU , what is it? -1.64
